// reported Kd for each item listed
Biological target: T1, VHS domain of ADP-ribosylation factor-binding protein GGA3 (GGA3 VHS) (human, UniProt Q9NZ52 16-146)
T1 sequence (looked up): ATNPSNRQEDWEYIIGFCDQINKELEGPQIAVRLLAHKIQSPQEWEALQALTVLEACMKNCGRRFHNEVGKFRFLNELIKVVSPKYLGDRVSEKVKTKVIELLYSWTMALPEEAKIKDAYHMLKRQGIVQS
Settings: both partners purified
No end group written: not given here. *: point of attachment. FITC = O=C1OC2(c3ccc(O)cc3Oc3cc(O)ccc32)c2ccc(NC(=S)*)cc21
metric: Kd (µM)

# binder, value_units, result_value
data = [
    ("PDDDDLWLPPPEYIPL [M 26-41 (RABV)]", "µM", 148),
    ("YQLGEESEERDDHLLPM [M6PR 262-277 (Human)]", "µM", 21),
    ("YKLVSFHDDSDEDLLHI [IGF2R 2476-2491 (Human)]", "µM", 4.7),
    ("{FITC}-DDSDEDLLHI [FITC - IGF2R 2482-2491 (Human)]", "µM", 4.2),
]
